Method Summary: Inhibition of [3H]KA binding to human iontropic glutamate receptors 5 and 6
pKi: −log10 of the molar value.

Compound: NS(=O)(=O)c1cccc2c1c([N+](=O)[O-])cc1nc(O)c(O)nc12
pKi: 5.21
--
Compound: O=C(O)c1ccc(C[C@H]2CC[C@H]3CN[C@H](C(=O)O)C[C@H]3C2)cc1
pKi: 4.99
--
Compound: CC(C)COC(=O)[C@@H]1C[C@H]2C[C@@H](Oc3ccccc3-c3nn[nH]n3)CC[C@H]2CN1
pKi: 5.22
--
Compound: O=C(O)[C@@H]1C[C@H]2C[C@@H](Oc3ccccc3-c3nn[nH]n3)CC[C@H]2CN1
pKi: 6.00
--
Compound: O=C(O)[C@@H]1C[C@H]2C[C@@H](Nc3ccccc3-c3nn[nH]n3)CC[C@H]2CN1
pKi: 5.86
--
Compound: CCC(CC)COC(=O)[C@@H]1C[C@H]2C[C@@H](Nc3ccccc3-c3nn[nH]n3)CC[C@H]2CN1
pKi: 4.86
--
Compound: O=C(O)[C@@H]1C[C@H]2C[C@@H](CCc3nn[nH]n3)CC[C@H]2CN1 [TEZAMPANEL ANHYDROUS]
pKi: 5.68
